Reported selectivity ratio at 24 h is given for each of the following compounds.
- Assay Method Text: Selectivity index, ratio for cytotoxicity against human HepG2 cells after 24 hrs to antiviral activity against HEV Kernow-C1 infected in gaussia luciferase transfected HepG2 cells pre-infected with virus for 4 hrs followed by compound addition and measured after 24 hrs post infection
- Assay type: toxicity, cell-based
- Test Settings: read-out: Selectivity Index
The answer should be a number; do not append a unit.

Example entries and their recorded answers appear below.
{"Compound": "CONC(=O)[C@H]1[C@@H](O)[C@@]2(O)c3c(Cl)cc(Br)cc3O[C@@]2(c2ccc(OC)cc2)[C@@H]1c1ccccc1 (racemic)", "selectivity ratio at 24 h": 123}
{"Compound": "CONC(=O)[C@H]1[C@@H](O)[C@@]2(O)c3c(OC)cc(Br)cc3O[C@@]2(c2ccc(OC)cc2)[C@@H]1c1ccccc1 (racemic)", "selectivity ratio at 24 h": 52800}
{"Compound": "CONC(=O)[C@H]1[C@@H](O)[C@@]2(O)c3c(Br)cc(Cl)cc3O[C@@]2(c2ccc(OC)cc2)[C@@H]1c1ccccc1 (racemic)", "selectivity ratio at 24 h": 163}

Answer with reported selectivity ratio at 24 h of COC(=O)[C@H]1[C@@H](O)[C@@]2(O)c3c(Cl)cc(OC)cc3O[C@@]2(c2ccc(OC)cc2)[C@@H]1c1ccccc1 (racemic)
9.3

Using known records, supply selectivity ratio at 24 h for `COC(=O)[C@H]1[C@@H](O)[C@@]2(O)c3c(OC)cc(O[C@@H]4O[C@@H]([C@H](O)CO)CO[C@H]4OC)cc3O[C@@]2(c2ccc(OC)cc2)[C@@H]1c1ccccc1`
76.7

* * *

- Assay Method Text: Selectivity index, ratio for cytotoxicity against human HepG2 cells after 24 hrs to antiviral activity against HEV Kernow-C1 infected in gaussia luciferase transfected HepG2 cells pre-infected with virus for 4 hrs followed by compound addition and measured after 24 hrs post infection
- Type: toxicity, cell-based
- Test Settings: read-out: Selectivity Index
Reported Metric: selectivity ratio at 24 h
Reply with just the number.

Here is how some compounds turned out for selectivity ratio at 24 h.
{"Compound": "COC(=O)[C@H]1[C@@H](O)[C@@]2(O)c3c(Br)cc(OC)cc3O[C@@]2(c2ccc(OC)cc2)[C@@H]1c1ccccc1 (racemic)", "selectivity ratio at 24 h": 9.7}
{"Compound": "CONC(=O)[C@H]1[C@@H](O)[C@@]2(O)c3c(OC)cc(OC)cc3O[C@@]2(c2ccc(F)cc2)[C@@H]1c1ccccc1 (racemic)", "selectivity ratio at 24 h": 13.5}
{"Compound": "CONC(=O)[C@H]1[C@@H](O)[C@@]2(O)c3c(Cl)cc(Cl)cc3O[C@@]2(c2ccc(OC)cc2)[C@@H]1c1ccccc1 (racemic)", "selectivity ratio at 24 h": 65.9}
{"Compound": "CONC(=O)[C@H]1[C@@H](O)[C@@]2(O)c3c(OC)cc(OC)cc3O[C@@]2(c2ccc(OC)cc2)[C@@H]1c1ccccc1 (racemic)", "selectivity ratio at 24 h": 35.4}

Recall and state the measured selectivity ratio at 24 h for COC(=O)[C@H]1[C@@H](O)[C@@]2(O)c3c(OC)cc(OC)cc3O[C@@]2(c2ccc(Cl)cc2)[C@@H]1c1ccccc1 (racemic) .
26.4

Output selectivity ratio at 24 h of CONC(=O)[C@H]1[C@@H](O)[C@@]2(O)c3c(F)cc(OC)cc3O[C@@]2(c2ccc(OC)cc2)[C@@H]1c1ccccc1 (racemic)
28.5

# return recorded selectivity ratio at 24 h for input COC(=O)[C@H]1[C@@H](O)[C@@]2(O)c3c(OC)cc(Cl)cc3O[C@@]2(c2ccc(OC)cc2)[C@@H]1c1ccccc1 (racemic)
79.3

Determine its reported selectivity ratio at 24 h: COc1ccc([C@@]23Oc4cc(OC)cc(F)c4[C@]2(O)[C@H](O)[C@H](C(=O)N(C)C)[C@H]3c2ccccc2)cc1 (racemic)
14.3

Return reported selectivity ratio at 24 h. Input compound: COC(=O)[C@H]1[C@@H](O)[C@@]2(O)c3c(Cl)cc(Cl)cc3O[C@@]2(c2ccc(OC)cc2)[C@@H]1c1ccccc1 (racemic)
31.7

Supply recorded selectivity ratio at 24 h for COC(=O)[C@H]1[C@@H](O)[C@@]2(O)c3c(Cl)cc(Cl)cc3O[C@@]2(c2ccc(Br)cc2)[C@@H]1c1ccccc1 (racemic) here.
13.4

Sourced from ChEMBL document CHEMBL5344434
